Where do these numbers come from? They come from the supplement of paper PMC9428881.

measurement.description: background-corrected fluorescence of 3'-dye-labeled ssDNA relative to brightest sequence (3'-GCGCG) (fraction); higher = brighter dye fluorescence (less quenching)
protocol.conditions: dye: Cy5 (3' terminal)
Assign y whenever background-corrected fluorescence does not fall below 0.5; assign n whenever it does.

chain.sequence: TTTTTTGCTGCGCATGCGCATTTTTTTTTTTTTTTAATAT [TATAA]
group: n

chain.sequence: TTTTTTGCTGCTGCTGCTGATTTTTTTTTTTTTTTAAAAC [CAAAA]
group: n

chain.sequence: TTTTTTCATGCTGCTGAGCATTTTTTTTTTTTTTTGAACT [TCAAG]
group: n

chain.sequence: TTTTTTCATCATGCTCATGCTTTTTTTTTTTTTTTGGAGA [AGAGG]
group: y

chain.sequence: TTTTTTGATGCTCATGCTCATTTTTTTTTTTTTTTCAGAG [GAGAC]
group: n

chain.sequence: TTTTTTGCTGCTGATGATCATTTTTTTTTTTTTTTAACCG [GCCAA]
group: n

chain.sequence: TTTTTTGCTCATCATGCTGCTTTTTTTTTTTTTTTAGGAA [AAGGA]
group: y

chain.sequence: TTTTTGCAGCAGCATGCGCATTTTTTTTTTTTTTTTTTAT [TATTT]
group: n

chain.sequence: TTTTTTGCTCATCATGATCATTTTTTTTTTTTTTTAGGCG [GCGGA]
group: y

###

measurement.description: background-corrected fluorescence of 3'-dye-labeled ssDNA relative to brightest sequence (3'-GCGCG) (fraction); higher = brighter dye fluorescence (less quenching)
protocol.conditions: dye: Cy3 (3' terminal)
Assign yes whenever background-corrected fluorescence does not fall below 0.5; assign no whenever it does.

chain.sequence: TTTTTTCATCATCATGATGATTTTTTTTTTTTTTTGGGCC [CCGGG]
group: yes
--
chain.sequence: TTTTTTGCTGCTCATCATCATTTTTTTTTTTTTTTAAGGG [GGGAA]
group: yes
--
chain.sequence: TTTTTTGATCATGCGCATCATTTTTTTTTTTTTTTCGATG [GTAGC]
group: yes
--
chain.sequence: TTTTTTGAGCATGATGAGCATTTTTTTTTTTTTTTCTCCT [TCCTC]
group: no
--
chain.sequence: TTTTTTGATCATGCGCAGCATTTTTTTTTTTTTTTCGATT [TTAGC]
group: yes
--
chain.sequence: TTTTTTCATGCTGATCATGCTTTTTTTTTTTTTTTGACGA [AGCAG]
group: yes
--
chain.sequence: TTTTTGCATGATGCTGAGCATTTTTTTTTTTTTTTTCACT
group: no
--
chain.sequence: TTTTTTCATGCTGCTCATGATTTTTTTTTTTTTTTGAAGC [CGAAG]
group: yes
--
chain.sequence: TTTTTTGATCATGCGCATGCTTTTTTTTTTTTTTTCGATA [ATAGC]
group: yes
--
chain.sequence: TTTTTTGATCATGAGCATGCTTTTTTTTTTTTTTTCGCTA [ATCGC]
group: yes
--
chain.sequence: TTTTTTGCTCATGCTGAGCATTTTTTTTTTTTTTTAGACT [TCAGA]
group: yes
--
chain.sequence: TTTTTTGATGCTGCTGCTCATTTTTTTTTTTTTTTCAAAG [GAAAC]
group: yes
--
chain.sequence: TTTTTTGCTCAGCAGCAGCATTTTTTTTTTTTTTTAGTTT [TTTGA]
group: yes
--
chain.sequence: TTTTTTCAGCAGCATGAGCATTTTTTTTTTTTTTTGTTCT [TCTTG]
group: no
--
chain.sequence: TTTTTTCATGCTGATGATCATTTTTTTTTTTTTTTGACCG [GCCAG]
group: yes
--
chain.sequence: TTTTTTCATGATGAGCATGATTTTTTTTTTTTTTTGCCTC [CTCCG]
group: no
